Subject of test: T1, human ghrelin O-acyltransferase (hGOAT) of the hGOAT inhibition assays (human, UniProt Q96T53 1-435)
T1 sequence (looked up): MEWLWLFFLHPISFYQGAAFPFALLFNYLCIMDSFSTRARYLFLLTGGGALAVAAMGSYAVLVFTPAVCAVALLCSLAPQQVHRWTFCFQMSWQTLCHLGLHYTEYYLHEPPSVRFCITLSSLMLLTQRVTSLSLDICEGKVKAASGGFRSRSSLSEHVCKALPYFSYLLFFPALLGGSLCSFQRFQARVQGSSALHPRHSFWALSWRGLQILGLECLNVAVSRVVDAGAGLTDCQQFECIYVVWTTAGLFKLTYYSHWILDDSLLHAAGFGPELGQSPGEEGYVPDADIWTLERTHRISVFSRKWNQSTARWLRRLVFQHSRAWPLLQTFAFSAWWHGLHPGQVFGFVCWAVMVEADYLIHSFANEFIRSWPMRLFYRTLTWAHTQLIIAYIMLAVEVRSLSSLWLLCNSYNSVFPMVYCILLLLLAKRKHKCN
Test method notes: cell-based or functional assay
Parameter: inhibition of hGOAT activity (IC50 against hGOAT). Scope: all listed entries.
Numeric answer only, unit nM assumed.

# count of solved cases: 2
GSXXLSPT (HELM PEPTIDE1{G.S.[NC[C@H](N[*:1])C(=O)[*:2]].[O=C([C@H](Cc1ccc2ccccc2c1)N[*:1])[*:2]].L.S.P.T.[am]}$$$$V2.0; SMILES CC(C)C[C@H](NC(=O)[C@H](Cc1ccc2ccccc2c1)NC(=O)[C@H](CN)NC(=O)[C@H](CO)NC(=O)CN)C(=O)N[C@@H](CO)C(=O)N1CCC[C@H]1C(=O)N[C@H](C(N)=O)[C@@H](C)O) [ligand 13, H-GS-Dap-Nal-2-LSPT-NH2]	16
GSXXLSPT (HELM PEPTIDE1{G.S.[NC[C@H](N[*:1])C(=O)[*:2]].[O=C([C@H](Cc1cccc2ccccc12)N[*:1])[*:2]].L.S.P.T.[am]}$$$$V2.0; SMILES CC(C)C[C@H](NC(=O)[C@H](Cc1cccc2ccccc12)NC(=O)[C@H](CN)NC(=O)[C@H](CO)NC(=O)CN)C(=O)N[C@@H](CO)C(=O)N1CCC[C@H]1C(=O)N[C@H](C(N)=O)[C@@H](C)O) [ligand 12, H-GS-Dap-Nal-1-LSPT-NH2]	6

Next up:
INPUT: Given the binder GSXFLSPY (HELM PEPTIDE1{G.S.[NC[C@H](N[*:1])C(=O)[*:2]].F.L.S.P.Y.[am]}$$$$V2.0; SMILES CC(C)C[C@H](NC(=O)[C@H](Cc1ccccc1)NC(=O)[C@H](CN)NC(=O)[C@H](CO)NC(=O)CN)C(=O)N[C@@H](CO)C(=O)N1CCC[C@H]1C(=O)N[C@@H](Cc1ccc(O)cc1)C(N)=O) [ligand 1, H-GS-Dap-FLSPY-NH2] , write its reported inhibition of hGOAT activity (IC50 against hGOAT).
OUTPUT: 104
